SYSTEM NAME: UniProtKB P17706
Sequence (P17706 whole entry): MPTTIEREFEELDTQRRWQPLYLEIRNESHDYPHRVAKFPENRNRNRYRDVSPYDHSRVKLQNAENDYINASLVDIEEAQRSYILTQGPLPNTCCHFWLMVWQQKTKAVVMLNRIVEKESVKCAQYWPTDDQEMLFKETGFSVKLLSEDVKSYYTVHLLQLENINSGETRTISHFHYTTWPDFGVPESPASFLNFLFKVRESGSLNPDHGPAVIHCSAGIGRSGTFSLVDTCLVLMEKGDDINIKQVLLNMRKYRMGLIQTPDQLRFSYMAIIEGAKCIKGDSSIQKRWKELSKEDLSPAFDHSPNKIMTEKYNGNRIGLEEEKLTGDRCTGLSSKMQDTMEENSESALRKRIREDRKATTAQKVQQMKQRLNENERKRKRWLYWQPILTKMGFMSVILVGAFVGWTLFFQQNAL
EXPERIMENTAL PROTOCOL: Inhibition of polyHis-tagged recombinant human TCPTP (1 to 415 residues) extracted from Escherichia coli BL21 (DE3) pLysS using p-nitro-phenyl phosphate as substrate assessed as substrate hydrolysis by measuring p-nitrophenolate release by absorbance based analysis

{"columns": ["SMILES NOTATION", "UNITS OF MEASURE", "IC50"],
 "data": [
  ["O=C(O)CN1C(=O)S/C(=C\\c2cn(Cc3ccccc3)c3ccccc23)C1=O", "µM", 47.1],
  ["O=C(O)CN1C(=O)S/C(=C\\c2cn(Cc3ccc(Cl)cc3Cl)c3ccccc23)C1=O", "µM", 37.8]
]}

---

SYSTEM NAME: Aldo-keto reductase family 1 member A1 (Rattus norvegicus, UniProt P51635)
Sequence (P51635 whole entry): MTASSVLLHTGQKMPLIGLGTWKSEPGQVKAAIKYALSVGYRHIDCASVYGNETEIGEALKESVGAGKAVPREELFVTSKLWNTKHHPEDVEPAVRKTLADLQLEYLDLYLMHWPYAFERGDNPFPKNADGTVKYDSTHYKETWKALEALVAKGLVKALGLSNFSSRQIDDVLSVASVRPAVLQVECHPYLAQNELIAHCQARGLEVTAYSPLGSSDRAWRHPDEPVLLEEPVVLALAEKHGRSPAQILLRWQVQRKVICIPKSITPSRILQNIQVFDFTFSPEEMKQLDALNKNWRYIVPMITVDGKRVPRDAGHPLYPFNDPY
EXPERIMENTAL PROTOCOL: Inhibition of rat kidney ALR1
Type: tissue-based
pIC50: −log10 of the molar value.

{"columns": ["SMILES NOTATION", "pIC50"],
 "data": [
  ["CC(/C=C1\\SC(=S)N(CC(=O)O)C1=O)=C\\c1ccccc1", 5.67]
]}

---

Each item that follows carries a reported inhibition.
SYSTEM NAME: Tyrosine-protein phosphatase non-receptor type 1 (Homo sapiens)
EXPERIMENTAL PROTOCOL: Inhibition of polyhis-tagged recombinant human PTP1B (1 to 303 residues) extracted from Escherichia coli BL21 (DE3) pLysS using p-nitro-phenyl phosphate as substrate at 10 uM preincubated for 15 mins followed by substrate addition and measured after 15 mins by absorbance based analysis relative to control
CONDITIONS: time 30.0 min
QUANTITY NAME: inhibition (%)

{"columns": ["SMILES NOTATION", "DATA VALUE"],
 "data": [
  ["O=C(O)CN1C(=O)S/C(=C\\c2cn(Cc3ccccc3)c3ccccc23)C1=O", 18.3],
  ["O=C(O)CN1C(=O)S/C(=C\\c2cn(Cc3ccc(Cl)cc3Cl)c3ccccc23)C1=O", 28.1],
  ["O=c1c(O)c(-c2ccc(O)cc2O)oc2cc(O)cc(O)c12", 34.5],
  ["O=C(O)CN1C(=O)S/C(=C\\c2cn(Cc3ccc(F)cc3)c3ccccc23)C1=O", 0],
  ["O=C(O)CN1C(=O)S/C(=C\\c2cn(Cc3ccc(Br)cc3F)c3ccccc23)C1=O", 0]
]}

---

SYSTEM NAME: UniProt P51635
EXPERIMENTAL PROTOCOL: Inhibition of male Wistar rat kidney ALR1 using D-glucuronate as substrate assessed as NADPH consumption by spectrophotometric analysis
pIC50: −log10 of the molar value.
QUANTITY NAME: pIC50

{"columns": ["SMILES NOTATION", "QUALIFIER", "DATA VALUE"],
 "data": [
  ["O=C(O)CN1C(=O)S/C(=C\\c2cn(Cc3ccc(Br)cc3F)c3ccccc23)C1=O", "<", 4.82],
  ["O=C(O)CN1C(=O)S/C(=C\\c2cn(Cc3ccc(Cl)cc3Cl)c3ccccc23)C1=O", "<", 4.82],
  ["O=C(O)CN1C(=O)S/C(=C\\c2cn(Cc3ccc(F)cc3)c3ccccc23)C1=O", "=", 4.85],
  ["O=C(O)CN1C(=O)S/C(=C\\c2cn(Cc3ccccc3)c3ccccc23)C1=O", "=", 5.12],
  ["CC(/C=C1\\SC(=S)N(CC(=O)O)C1=O)=C\\c1ccccc1", "=", 5.63]
]}

---

Organism: Rattus norvegicus
EXPERIMENTAL PROTOCOL: Selectivity index, ratio of IC50 for male Wistar rat kidney ALR1 using D-glucuronate as substrate to IC50 for male Wistar rat lens ALR2 using D,L-glyceraldehyde as substrate
Each item that follows carries a reported Ratio IC50.
QUANTITY NAME: Ratio IC50

{"columns": ["SMILES NOTATION", "QUANTITY NAME", "QUALIFIER", "DATA VALUE"],
 "data": [
  ["O=C(O)CN1C(=O)S/C(=C\\c2cn(Cc3ccc(Cl)cc3Cl)c3ccccc23)C1=O", "Ratio IC50", ">", 52],
  ["O=C(O)CN1C(=O)S/C(=C\\c2cn(Cc3ccc(Br)cc3F)c3ccccc23)C1=O", "Ratio IC50", ">", 80],
  ["O=C(O)CN1C(=O)S/C(=C\\c2cn(Cc3ccccc3)c3ccccc23)C1=O", "Ratio IC50", "=", 290],
  ["O=C(O)CN1C(=O)S/C(=C\\c2cn(Cc3ccc(F)cc3)c3ccccc23)C1=O", "Ratio IC50", "=", 787]
]}

---

SYSTEM NAME: Tyrosine-protein phosphatase non-receptor type 1 (Homo sapiens) (UniProt P18031)
Sequence (whole entry): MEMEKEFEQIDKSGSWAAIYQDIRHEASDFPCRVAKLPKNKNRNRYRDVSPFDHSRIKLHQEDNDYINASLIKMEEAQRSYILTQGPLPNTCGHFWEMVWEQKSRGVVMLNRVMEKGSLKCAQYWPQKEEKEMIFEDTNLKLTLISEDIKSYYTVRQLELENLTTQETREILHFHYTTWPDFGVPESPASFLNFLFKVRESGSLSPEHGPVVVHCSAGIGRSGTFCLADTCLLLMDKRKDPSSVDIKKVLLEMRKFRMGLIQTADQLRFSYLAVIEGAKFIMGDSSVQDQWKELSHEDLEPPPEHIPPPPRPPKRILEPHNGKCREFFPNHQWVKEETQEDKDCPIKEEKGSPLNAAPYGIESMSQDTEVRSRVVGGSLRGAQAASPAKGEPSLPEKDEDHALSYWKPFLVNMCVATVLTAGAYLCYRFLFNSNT
EXPERIMENTAL PROTOCOL: Inhibition of polyhis-tagged recombinant human PTP1B (1 to 303 residues) extracted from Escherichia coli BL21 (DE3) pLysS using p-nitro-phenyl phosphate as substrate at 50 uM preincubated for 15 mins followed by substrate addition and measured after 15 mins by absorbance based analysis relative to control
CONDITIONS: time 30.0 min
Label Yes when inhibition is at or above 60%; anything below gets No.

{"columns": ["SMILES NOTATION", "QUALITATIVE LABEL"],
 "data": [
  ["O=C(O)CN1C(=O)S/C(=C\\c2cn(Cc3ccccc3)c3ccccc23)C1=O", "No"],
  ["O=c1c(O)c(-c2ccc(O)cc2O)oc2cc(O)cc(O)c12", "Yes"],
  ["O=C(O)CN1C(=O)S/C(=C\\c2cn(Cc3ccc(Br)cc3F)c3ccccc23)C1=O", "No"],
  ["O=C(O)CN1C(=O)S/C(=C\\c2cn(Cc3ccc(Cl)cc3Cl)c3ccccc23)C1=O", "Yes"],
  ["O=C(O)CN1C(=O)S/C(=C\\c2cn(Cc3ccc(F)cc3)c3ccccc23)C1=O", "Yes"]
]}

---

SYSTEM NAME: UniProt P18031
EXPERIMENTAL PROTOCOL: Inhibition of polyhis-tagged recombinant human PTP1B (1 to 303 residues) extracted from Escherichia coli BL21 (DE3) pLysS using p-nitro-phenyl phosphate as substrate assessed as substrate hydrolysis by measuring p-nitrophenolate release by absorbance based analysis

{"columns": ["SMILES NOTATION", "IC50"],
 "data": [
  ["O=C(O)CN1C(=O)S/C(=C\\c2cn(Cc3ccc(Br)cc3F)c3ccccc23)C1=O", "> 50 µM"],
  ["O=C(O)CN1C(=O)S/C(=C\\c2cn(Cc3ccc(Cl)cc3Cl)c3ccccc23)C1=O", "21.3 µM"],
  ["O=C(O)CN1C(=O)S/C(=C\\c2cn(Cc3ccccc3)c3ccccc23)C1=O", "42.8 µM"]
]}

---

SYSTEM NAME: Aldo-keto reductase family 1 member B1 (Rattus norvegicus, UniProt P07943)
QUANTITY NAME: IC50 (nM)

{"columns": ["SMILES NOTATION", "QUANTITY NAME", "DATA VALUE"],
 "data": [
  ["O=C(O)CN1C(=O)S/C(=C\\c2cn(Cc3ccccc3)c3ccccc23)C1=O", "IC50", 26]
]}
